- Test system: MFE-296 (Endometrial Carcinoma);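 also: after 72 h of two-drug dosing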
- Run description: Bliss excess, mean over the matrix (fraction); higher = more synergy
Label met when Bliss excess >= -0.006; otherwise not met.

[in] For this compound, is measured Bliss excess -0.006 or higher? CCc1c2c(nc3ccc(O)cc13)-c1cc3c(c(=O)n1C2)COC(=O)[C@]3(O)CC [SN-38] + CN(C)CCCOc1ccc(-c2ccc3ncc4c(c3c2)n(C2CCOCC2)c(=O)n4C)cn1 [AZD0156] (first compound max 0.3 µM, 7x7, partner max 1 µM)
[out] met

[in] For this compound, is measured Bliss excess -0.006 or higher? CC1(C)CCC(CN2CCN(c3ccc(C(=O)NS(=O)(=O)c4ccc(NCC5CCOCC5)c([N+](=O)[O-])c4)c(Oc4cnc5[nH]ccc5c4)c3)CC2)=C(c2ccc(Cl)cc2)C1 [Venetoclax] + CCN(CCO)CCCOc1ccc2c(Nc3cc(CC(=O)Nc4cccc(F)c4)[nH]n3)ncnc2c1 [AZD2811] (first compound max 1 µM, 7x7, partner max 1 µM)
[out] not met

[in] For this compound, is measured Bliss excess -0.006 or higher? COc1cccc(OCCCN)c1-c1cc(Nc2cnc(C#N)cn2)n[nH]1 [Prexasertib] + O=C(c1cc(Cc2n[nH]c(=O)c3ccccc23)ccc1F)N1CCN(C(=O)C2CC2)CC1 [Olaparib] (first compound max 1 µM, 7x7, partner max 10 µM)
[out] not met

[in] For this compound, is measured Bliss excess -0.006 or higher? COc1nnc2ccc(N3CCC(c4ccc(OCCN5CCN(C)C(=O)[C@H]5C)cc4)CC3)nn12 [AZD5153] + Cc1c2c(nn1C)CSCc1cc(n(C)n1)CSc1cc(c3ccccc3c1)OCCCc1c(C(=O)O)n(C)c3c-2c(Cl)ccc13 [AZD5991] (first compound max 1 µM, 7x7, partner max 1 µM)
[out] met

[in] For this compound, is measured Bliss excess -0.006 or higher? C[C@@H]1COCCN1c1cc(C2([S@](C)(=N)=O)CC2)nc(-c2ccnc3[nH]ccc23)n1 [AZD6738] + O=C(c1cc(Cc2n[nH]c(=O)c3ccccc23)ccc1F)N1CCN(C(=O)C2CC2)CC1 [Olaparib] (first compound max 10 µM, 7x7, partner max 10 µM)
[out] met

[in] For this compound, is measured Bliss excess -0.006 or higher? CN(C)CCCOc1ccc(-c2ccc3ncc4c(c3c2)n(C2CCOCC2)c(=O)n4C)cn1 [AZD0156] + O=C(c1cc(Cc2n[nH]c(=O)c3ccccc23)ccc1F)N1CCN(C(=O)C2CC2)CC1 [Olaparib] (first compound max 3 µM, partner max 3 µM)
[out] not met

[in] For this compound, is measured Bliss excess -0.006 or higher? CC1(C)CCC(CN2CCN(c3ccc(C(=O)NS(=O)(=O)c4ccc(NCC5CCOCC5)c([N+](=O)[O-])c4)c(Oc4cnc5[nH]ccc5c4)c3)CC2)=C(c2ccc(Cl)cc2)C1 [Venetoclax] + C1CN(CCC1(C(=O)N[C@@H](CCO)C2=CC=C(C=C2)Cl)N)C3=NC=NC4=C3C=CN4 [Capivasertib] (first compound max 1 µM, 7x7, partner max 3 µM)
[out] not met
